Reported RA% 200 µM 60 min values follow for various compounds
assay name: Reducing activity of the stable radical DPPH
Assay type: biochemical
assay setup: 200 µM, 60 min
Just the number please, in %, no unit attached.

Guide cases for RA% 200 µM 60 min, answers given:
1. O=C1C(=C/C=C\c2ccccc2)C(=O)c2ccccc21; 72
2. Cc1ccsc1C=C1C(=O)c2ccccc2C1=O; 7

We now examine a further compound.
Enquiry: Output RA% 200 µM 60 min of `CC(C)(C)c1cc(C=C2C(=O)c3ccccc3C2=O)cc(C(C)(C)C)c1O`
Return: 71
